Tested on: RPMI-8226
Experiment: NCI tumour cell line growth inhibition, 48 h
Calls of active or inactive are those of the source. Cut-off read from the data, not from the text of the source: active = GI50 up to about 1.1 µM and inactive = higher.
ENDPOINT: GI50

- [N-]=[N+]=NC1OC(=O)C(Cl)=C1N=P(c1ccccc1)(c1ccccc1)c1ccccc1 (centres undefined): 3.34 µM (inactive)
- Fc1nc(Sc2ncnc3nc[nH]c23)nc(-c2c3ccccc3c3sc4ccccc4n23)n1: > 100 µM (inactive)
- Cc1ccc(C2SC(=N)Nc3c2c(C)nn3C(=O)c2ccccc2O)cc1 (centres undefined): > 10 µM (inactive)

What does the record list as GI50 for CN(C)CCNc1nc2ccccc2c2c1CCCC2 ? 20.5 µM (inactive)

What does the record list as GI50 for Cc1c(C)c(C)c(CC2(C)CSC2)c(CC2(C)CSC2)c1C ? > 100 µM (inactive)

What does the record list as GI50 for O=C1/C(=C/c2cccc3ccccc23)CCc2ccc([N+](=O)[O-])cc21 ? 11.8 µM (inactive)

What does the record list as GI50 for CC(=O)OC1CC[C@@]2(C)C(CC[C@]3(C)C2CC=C2[C@@H]4CC(C)(C)CCC4(C)CCC23C)[C@@]1(C)C(=O)O (some centres undefined) ? 10.8 µM (inactive)

What does the record list as GI50 for c1ccc([P+](c2ccccc2)(c2ccccc2)c2ccc([P+](c3ccccc3)(c3ccccc3)c3ccccc3)c3ccccc23)cc1 ? 57.1 µM (inactive)

Where do the numbers come from? From ChEMBL document CHEMBL1201862.
